Target: Tyrosine-protein kinase SYK (Homo sapiens)
Assay: Inhibition of recombinant Syk
observed.property: IC50 (nM)

Q) Consider the compound Cc1c(/C=C2/C(=O)Nc3ccc(S(N)(=O)=O)cc32)c2ccccc2n1C and give its measured IC50.
A) 4000

Q) I am curious: what IC50 value has been reported for COc1ccc(CNS(=O)(=O)c2ccc3c(c2)/C(=C/c2cn(C)c4ccc(OC)cc24)C(=O)N3)cc1 ?
A) 4000

Q) Given the compound Cc1ncc(C(N)=O)c(Nc2cccc(C(F)(F)F)c2)n1 , what is its reported IC50?
A) 5000

Q) What IC50 value was documented for this compound, c1cc(COc2ccc(Nc3nccc(-c4nccs4)n3)cc2)ccn1 ?
A) 2000

Q) Would you mind telling me what IC50 value was observed for c1ccc(Oc2cccc(Nc3nccc(-c4nccs4)n3)c2)cc1 ?
A) 1000

Q) Item under review: NCCCNc1ncc(C(N)=O)c(Nc2cccc(C(F)(F)F)c2)n1 . Reported IC50?
A) 230

Q) Name the recorded IC50 for COc1cc(/C=C/[N+](=O)[O-])ccc1O .
A) 76000

Q) I have this compound here, OCCCOc1cc(Nc2nccc(-c3nccs3)n2)cc(C(F)(F)F)c1 , and I need its recorded IC50.
A) 26

I. Cc1cc(C)cc(Nc2nc(CC3CCCC[C@H]3N)n3ccnc3c2C(N)=O)c1 (stereo not given in full)
II. CCc1cc(NCC(C)(C)N)n2nc(Nc3cc(OC)cc(OC)c3)c(C(N)=O)c2n1
Q) Which of the two gives a bigger number for IC50: I or II ? Your answer should be the label attached to the chosen record.
A) II

I. COc1cc(Nc2nc(NC3CCCC[C@H]3N)n3nc(-c4cccc(O)c4)nc3c2C(N)=O)cc(OC)c1 (stereo not given in full)
II. c1c[nH]c(-c2ccnc(Nc3ccc(Oc4ccc5c(c4)OCO5)cc3)n2)c1
Q) Please state the entry with greater IC50 among I and II . // respond with label for picked entry
A) II
(II: 500 nM, I: 7 nM)

A. Cc1cc(Nc2nn(CC3CCCNC3)c(=O)c3ccccc23)[nH]n1 (stereo not given)
B. COc1cc(Nc2nc(N[C@@H]3CCCC[C@@H]3N)n3cnnc3c2C(N)=O)cc(OC)c1
C. COC(=O)c1ccccc1-c1ccc(/C=C2/SC(=S)N(Cc3ccccc3)C2=O)o1
Q) Sort low-to-high on IC50, please. Answer by writing out the labels in the requested order.
A) B, C, A
(B: 9 nM, C: 4000 nM, A: 6530 nM)

I. CCc1cccc(Nc2nc(NCCN)ncc2C(N)=O)c1
II. CCOc1cccc(Nc2nc(NCCN)ncc2C(N)=O)c1
III. Cc1cc(C)cc(Nc2nc(N[C@H](CN)c3ccccc3)n3ccnc3c2C(N)=O)c1
Q) Given 3 compounds, produce a descending ranking by IC50. Write the labels, ordered according to the request.
A) II, I, III

* * *

Target: Tyrosine-protein kinase SYK (Homo sapiens, UniProt P43405)
Experiment: Inhibition of recombinant Syk
observed.property: IC50 (nM)

Recorded IC50, per entry:
Q) What value of IC50 has been reported for the following compound? N#Cc1cccc(Nc2nc(NCCN)ncc2C(N)=O)c1
A) 110

Q) What value of IC50 has been reported for the following compound? c1ccc(COc2ccc(Nc3nccc(-c4nccs4)n3)cc2)cc1
A) 1000

Q) For COCCOc1ccc2c(Nc3cc(C)[nH]n3)nn(C(C)C)c(=O)c2c1 , what is its reported IC50?
A) 894

Q) Field request: IC50 | item: CN(C)CCN(C)c1ncc(C(N)=O)c(Nc2cccc(C(F)(F)F)c2)n1
A) 10000

Q) // IC50 lookup, key: Fc1ccc(Nc2nccc(-c3nccs3)n2)cc1
A) 1000

a. Cc1cc(Nc2nn(C(C)C)c(=O)c3cc(N4CCOCC4)ccc23)[nH]n1
b. COc1cc(Nc2nc(NC3CCCC[C@H]3N)n3cnnc3c2C(N)=O)cc(OC)c1 (stereo partly specified)
c. CS(=O)(=O)c1cccc(Oc2cccc(Nc3nccc(-c4nccs4)n3)c2)c1
d. CC(C)Oc1cccc(Nc2nc(NCCN)ncc2C(N)=O)c1
e. CN(C)c1ccc(-c2cc3ncccc3c(NC(C)(C)CN)n2)cc1
Q) Ordering criterion: IC50; begin with the maximum. List labels; respect the requested ordering.
A) a, c, e, d, b
(a: 1100 nM, c: 500 nM, e: 310 nM, d: 72 nM, b: 3.7 nM)
